Cited source for all entries: ChEMBL document CHEMBL1201862

Exercise: state measured GI50 for each of the molecules provided.
Tested on: EKVX
Assay: NCI tumour cell line growth inhibition, 48 h
Activity calls are given as the source filed them. Cut-off read from the data, not from the text of the source: active = GI50 up to about 1.1 µM and inactive = higher.

Query block: Field request: GI50 | item: O=C1Nc2ccccc2/C1=N/NC(=S)Nc1cccc(Cl)c1
Result block: 10.3 µM (inactive)

Query block: Let us now turn to CCn1c(=O)c2nc(SC)sc2n(-c2ccccc2)c1=S
Result block: > 100 µM (inactive)

Query block: Let us now turn to O=C(O)C1CCCN1Cc1ccc2c(c1)OCO2 (stereo not drawn)
Result block: > 100 µM (inactive)

Query block: Let us now turn to CC1=NNC(=O)C1C1CC(c2c[nH]c3ccccc23)=NNC1=O (stereo not drawn)
Result block: 11.9 µM (inactive)

Query block: Let us now turn to Oc1ccc2c(c1)-c1c(c3ccccc3n1CCN1CCOCC1)CC2
Result block: 53.2 µM (inactive)

Query block: Let us now turn to COc1cc(/C=C2/SC(c3ccccc3)N(c3ccccc3)C2=O)cc(OC)c1OC (stereo not drawn)
Result block: 51.6 µM (inactive)

Query block: Let us now turn to CCCCCCCCCCCCCCCC(=O)OCC1OC(N2C(=O)/C(=N\NC(N)=S)c3ccc([N+](=O)[O-])cc32)C(OC(C)=O)C1OC(C)=O (stereo not drawn)
Result block: 39.4 µM (inactive)

Query block: Let us now turn to NC(=O)C(C(N)=O)=C(O)/C(O)=C/C(=O)c1ccccc1
Result block: > 100 µM (inactive)

---

Test system: A549
Assay: NCI tumour cell line growth inhibition, 48 h
Calls of active or inactive are those of the source. Rule as the data show it: active = GI50 up to about 1.1 µM and inactive = higher.
Exercise: state measured GI50 for each of the molecules provided.

Query block: Field request: GI50 | item: NC1CCC[C@H]1O (some centres not stated)
Result block: > 100 µM (inactive)

Query block: Let us now turn to CC1(C)COC(c2c(-c3ccccc3)noc2C[S+]([O-])c2ccccc2)=N1 (configuration not stated)
Result block: 46 µM (inactive)

Query block: Let us now turn to O=c1/c(=C/c2ccc(-c3ccc(Cl)cc3Cl)o2)sc2n1[C@@H](c1ccc(Cl)cc1)C=C(c1cc(F)c(Cl)cc1Cl)N=2
Result block: > 100 µM (inactive)

Query block: Let us now turn to CC(C)C1OC(=O)/C=C/C=C/C=C/C=C/C=C/CC(O)CC(O)CC(O)CC(O)CC(O)CC(O)CC(O)CC(O)/C=C/C1C (configuration not stated)
Result block: > 100 µM (inactive)

Query block: Let us now turn to O=C(Nc1sccc1S(=O)(=O)c1ccccc1)c1cccnc1
Result block: 11.5 µM (inactive)

Query block: Let us now turn to O=C1Nc2ccc(Br)cc2/C1=C/C(=O)c1ccccc1
Result block: 16.1 µM (inactive)

Query block: Let us now turn to CCCCCCCCCCCC1NC(N)=NC(CCCO)=C1C(=O)OC (configuration not stated)
Result block: 5.92 µM (inactive)

Query block: Let us now turn to Cc1cn(C2CC(O)C(Cn3nncc3Cn3ccc(=O)[nH]c3=O)O2)c(=O)[nH]c1=O (configuration not stated)
Result block: > 100 µM (inactive)

Query block: Let us now turn to O=C1C2=C(c3ccccc31)C(c1ccccc1Cl)N1C(=O)CCSC1=N2 (configuration not stated)
Result block: > 100 µM (inactive)

Query block: Let us now turn to CN(C)CCNc1ccc(CO)c2oc3ccc(O)cc3c(=O)c12
Result block: 14.6 µM (inactive)

Query block: Let us now turn to COc1ccc(C2=Nn3c(nc4sc(-c5ccccc5)cc4c3=O)SC2)cc1
Result block: > 100 µM (inactive)

Query block: Let us now turn to CCCCCCCCCCCCCCCC(=O)OCC1OC(N2C(=O)/C(=N\NC(N)=S)c3ccc([N+](=O)[O-])cc32)C(OC(C)=O)C1OC(C)=O (configuration not stated)
Result block: 56.2 µM (inactive)

---

Tested on: NCI-H23
Assay: NCI tumour cell line growth inhibition, 48 h
Activity calls are given as the source filed them. Rule as the data show it: active = GI50 up to about 1.1 µM and inactive = higher.
Value Kind: GI50

Query block: Request - read-out GI50 | tested on NCI-H23 | molecule COC(=O)[C@]12CC[C@H]3CN(C(=O)OCc4ccccc4)[C@H]([C@H]31)[C@H](C(=O)OCC[Si](C)(C)C)N2S(=O)(=O)c1ccc(C)cc1
Result block: > 100 µM (inactive)

Query block: Let us now turn to O=C(O)c1cc(N(Cc2ccccc2O)Cc2cc(O)ccc2O)ccc1O
Result block: > 100 µM (inactive)

Query block: Let us now turn to CSc1c(C(N)=S)c(N)nn1-c1ccccc1
Result block: > 100 µM (inactive)

---

System: SK-MEL-2
Assay: NCI tumour cell line growth inhibition, 48 h
Activity calls are given as the source filed them. Rule as the data show it: active = GI50 up to about 1.1 µM and inactive = higher.
The reply should be one of these categories: active, inactive

Query block: What call does the record list for O=C(CCc1cc(-c2ccco2)n(-c2ccc([N+](=O)[O-])cc2[N+](=O)[O-])n1)Nc1ccccc1 ?
Result block: inactive

Query block: Let us now turn to O=c1oc2ccccc2c(O)c1C1c2c(c3ccccc3oc2=O)Oc2c1c(=O)oc1ccccc21
Result block: inactive

Query block: Let us now turn to CCOC(=O)C1=C(C)N(Cc2ccc(Cl)cc2Cl)C2(O)C=CC(=O)C3C(=O)N(c4ccccc4)C(=O)C132 (centres undefined)
Result block: inactive

Query block: Let us now turn to O=S(=O)(O)c1ccc2c(/N=N/c3ccc(S(=O)(=O)O)c4ccccc34)c(O)c(S(=O)(=O)O)cc2c1
Result block: inactive

Query block: Let us now turn to Cc1cccc(NC(Nc2cccc(C)c2)=C(C(Cl)=C(Cl)Cl)[N+](=O)[O-])c1
Result block: inactive

Query block: Let us now turn to COc1ccc(C2C(C(=O)c3ccccc3)=C(O)C(O)(CC(=O)c3ccccc3)N2c2ccc(OC)cc2)cc1 (centres undefined)
Result block: inactive

Query block: Let us now turn to CSCCCNC(=O)[C@H](CSC)NC(=O)c1csc(CCNC(=O)[C@@H](NSc2ccccc2[N+](=O)[O-])C(C)O)n1 (some centres undefined)
Result block: inactive

Query block: Let us now turn to CCOCCOC(=O)C1CCC(=O)N1CN(C(C)=O)c1cc(OC)ccc1OC (centres undefined)
Result block: inactive

Query block: Let us now turn to CC(=O)Nc1c(C)cc(OCC(=O)O)cc1C
Result block: inactive

Query block: Let us now turn to O=C(CN1CCOCC1)c1ccc2c(c1)oc(=O)n2CCN1CCOCC1
Result block: inactive

Query block: Let us now turn to COc1cc2cc(C(=O)N3CC(CCl)c4ccc(NCCN)cc43)[nH]c2c(OC)c1OC (centres undefined)
Result block: active

Query block: Let us now turn to N#Cc1nc(-c2cnccn2)oc1N
Result block: inactive

Query block: Let us now turn to COc1ccc(-c2nc(SCC(=O)N/N=C/c3ccc([N+](=O)[O-])cc3)[nH]c2-c2ccc(OC)cc2)cc1
Result block: inactive

Query block: Let us now turn to CCOC(=O)C(C)N1C(=O)c2ccccc2S1(=O)=O (centres undefined)
Result block: inactive

Query block: Let us now turn to O=C(O)C1CCCN1Cc1ccc2c(c1)OCO2 (centres undefined)
Result block: inactive

Query block: Let us now turn to CCOC(=O)N(CC)c1c(C(F)(F)F)cc(-c2ccccc2)[nH]c1=O
Result block: inactive

Query block: Let us now turn to COc1ccc(/C(Cl)=C(\C=O)c2ccc([N+](=O)[O-])cc2)cc1
Result block: inactive

Query block: Let us now turn to CCOC(=O)C/N=c1\nc(SC)sc2c(C(=O)OCC)nc(Sc3ccccc3)n12
Result block: inactive

Query block: Let us now turn to COc1cc(/C=C2/SC(c3ccccc3)N(c3ccccc3)C2=O)cc(OC)c1OC (centres undefined)
Result block: inactive

Query block: Let us now turn to Cc1cc(=O)oc2c3c(ccc12)OC(c1ccc(Br)cc1)CC3=O (centres undefined)
Result block: inactive

Query block: Let us now turn to COc1cccc2c1C(=O)c1c(O)c3c(c(O)c1C2=O)C[C@@](O)(C(C)=O)C[C@@H]3OC1OC(C)C(O)C(N)C1Br (some centres undefined)
Result block: active

Query block: Let us now turn to C=CCSc1ncnc2c1ncn2C1OC(CO)C(O)C1O (centres undefined)
Result block: inactive

Query block: Let us now turn to O=C1Nc2ccccc2/C1=N/NC(=S)Nc1cccc(Cl)c1
Result block: inactive

Query block: Let us now turn to COc1ccc2c(c1)c(Cc1c(C)n(C)c3ccc(OC)cc13)c(C)n2C
Result block: inactive

---

Test system: NCI-H460
Test: NCI tumour cell line growth inhibition, 48 h
The source made the active and inactive calls. Rule as the data show it: active = GI50 up to about 1.1 µM and inactive = higher.
Value Kind: GI50

Query block: Request - read-out GI50 | tested on NCI-H460 | molecule O=C(O/N=C1/CCC/C1=C\c1ccccc1)c1ccc(Cl)cc1
Result block: > 31.6 µM (inactive)

Query block: Let us now turn to [N-]=[N+]=Nc1c([N+](=O)[O-])c(=O)n(-c2ccccc2)c2ccccc12
Result block: 30.6 µM (inactive)

Query block: Let us now turn to O=C1C=CC(=O)[C@H]2C3C=CC(C4C3C3(Cl)C(Cl)=C(Cl)[C@]4(Cl)C3(Cl)Cl)[C@@H]12 (stereo partly drawn)
Result block: 4.02 µM (inactive)

Query block: Let us now turn to CN1C(=O)c2ccccc2NC(=O)C12O[C@@H]2c1ccccc1 (stereo partly drawn)
Result block: > 100 µM (inactive)

Query block: Let us now turn to O=C1Nc2ccc(Br)cc2/C1=N/S(=O)(=O)O
Result block: 29 µM (inactive)

Query block: Let us now turn to CCO[C@H]1O[C@@H]2OC3(C)CCC4[C@H](C)CCC([C@H]1C)[C@]42OO3 (stereo partly drawn)
Result block: > 55 µM (inactive)

Query block: Let us now turn to COc1ccc(-n2c(N)c(C#N)[nH]c2=O)cc1
Result block: > 10 µM (inactive)

Query block: Let us now turn to CC/C(Cl)=N\OC(=O)Nc1ccc(OC)c(C)c1
Result block: 41.2 µM (inactive)
